B1: CPEB3 Ribozyme (parent)
chain: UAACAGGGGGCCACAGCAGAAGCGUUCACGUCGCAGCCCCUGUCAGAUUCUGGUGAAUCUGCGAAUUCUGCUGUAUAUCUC

Variants of: B1
assay_info: self-cleavage, relative activity (ratio to wild type); higher = more cleavage; in vitro, sequencing
assay_metric: self-cleavage

alteration	assay_metric	recorded_result
C32A G61A	self-cleavage	0.19
U26G A47G	self-cleavage	0.39
A35U U78C	self-cleavage	0.52
G8A C39G	self-cleavage	0.06
U41C U78A	self-cleavage	1.13
C17U U51C	self-cleavage	0.56
U41C A57G	self-cleavage	1
A28G C34U	self-cleavage	0.32
U43A U78C	self-cleavage	1.13
G6A G19C	self-cleavage	0.42

Reference source for all entries: the RNAGym collection of RNA variant scans (doi:10.1093/nar/gkz1192)
